Examples of compounds with documented IC90 follow.
Tested on: Mycobacterium tuberculosis
Assay: Antimycobacterial activity against Mycobacterium tuberculosis H37Rv ATCC 27294 microplate alamar blue assay
Format: functional
Write the number in µg/mL without appending the unit.

O=C(NCc1ccccc1)c1c(-c2ccccc2)[n+]([O-])c2ccccc2[n+]1[O-]    6.71
O=C(Nc1ccccc1)c1c(-c2ccccc2)[n+]([O-])c2ccc(C(F)(F)F)cc2[n+]1[O-]    19.1
Cc1c(C(=O)NCC(c2ccccc2)c2ccccc2)[n+]([O-])c2cc(Cl)ccc2[n+]1[O-]    60.4
Cc1ccc(CNC(=O)c2c(C)[n+]([O-])c3ccccc3[n+]2[O-])cc1    6.76
COc1ccc2c(c1)[n+]([O-])c(C(=O)Nc1ccccc1)c(-c1ccccc1)[n+]2[O-]    26.8

Could you share which IC90 value was measured for Cc1c(C(=O)NCc2ccc(Cl)cc2)[n+]([O-])c2cc(Cl)ccc2[n+]1[O-] ?
29.7

Endpoint output: IC90 of Cc1c(C(=O)NCc2ccc(C(F)(F)F)cc2)[n+]([O-])c2cc(Cl)c(Cl)cc2[n+]1[O-] . Value?
6.58

src = ChEMBL document CHEMBL1250471
